Exercise: for every item that follows, state its recorded IC50.
studySystem: FLT3 (Homo sapiens)
Sequence (P36888 27-993): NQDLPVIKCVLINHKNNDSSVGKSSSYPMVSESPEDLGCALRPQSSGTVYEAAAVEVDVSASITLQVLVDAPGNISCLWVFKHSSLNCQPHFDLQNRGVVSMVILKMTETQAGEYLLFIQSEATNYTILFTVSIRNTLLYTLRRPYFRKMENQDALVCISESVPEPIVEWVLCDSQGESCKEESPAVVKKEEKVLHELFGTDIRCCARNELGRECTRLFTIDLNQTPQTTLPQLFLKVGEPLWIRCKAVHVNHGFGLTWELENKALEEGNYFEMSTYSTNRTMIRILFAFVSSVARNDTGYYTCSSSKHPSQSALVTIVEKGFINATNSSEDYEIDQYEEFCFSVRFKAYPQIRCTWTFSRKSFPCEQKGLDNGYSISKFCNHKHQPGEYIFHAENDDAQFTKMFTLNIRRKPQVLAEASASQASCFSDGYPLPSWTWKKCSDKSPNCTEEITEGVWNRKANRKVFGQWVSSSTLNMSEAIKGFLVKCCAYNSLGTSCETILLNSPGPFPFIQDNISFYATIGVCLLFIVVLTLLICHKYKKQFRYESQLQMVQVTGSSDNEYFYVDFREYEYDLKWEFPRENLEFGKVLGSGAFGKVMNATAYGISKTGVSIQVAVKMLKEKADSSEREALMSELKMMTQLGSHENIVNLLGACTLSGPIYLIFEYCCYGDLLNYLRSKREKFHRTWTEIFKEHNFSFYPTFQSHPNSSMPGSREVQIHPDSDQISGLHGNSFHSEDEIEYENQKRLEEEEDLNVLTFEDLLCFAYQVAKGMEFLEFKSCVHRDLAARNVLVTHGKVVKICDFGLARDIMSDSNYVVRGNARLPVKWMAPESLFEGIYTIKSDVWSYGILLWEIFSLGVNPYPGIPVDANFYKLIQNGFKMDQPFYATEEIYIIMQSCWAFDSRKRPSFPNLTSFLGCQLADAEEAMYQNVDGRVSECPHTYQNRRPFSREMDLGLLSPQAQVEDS

Any idea what IC50 was measured for CCOCC(C)Nc1ncc2c(-c3ccc(CN4CCN(C)CC4)cc3)cc(C3CCC(O)CC3)n2n1 (stereo not drawn) ? 100 to 1000 nM

Any idea what IC50 was measured for COCC[C@@H](C)Nc1ncc2c(-c3ccc(CN4CCOCC4)cc3)cc([C@H]3CC[C@H](O)CC3)n2n1 ? 1000 to 10000 nM

Any idea what IC50 was measured for COCC(C)Nc1ncc2c(-c3ccc(C(C)N4CCOCC4)cc3)cc(C3CCC(O)CC3)n2n1 (stereo not drawn) [Compound 182] ? ≤ 100 nM

Any idea what IC50 was measured for COC[C@H](C)Nc1ncc2c(-c3cnn(C(C)(C)c4nnc([C@@H]5CCCO5)o4)c3)cc([C@H]3CC[C@H](O)CC3)n2n1 ? 1000 to 10000 nM

Any idea what IC50 was measured for COC[C@H](C)Nc1ncc2c(-c3cnn(C(C)(C)C(=O)N4CCOC(C(C)(C)O)C4)c3)cc([C@H]3CC[C@H](O)CC3)n2n1 (stereo partly drawn) [Compound 586] ? 1000 to 10000 nM

Any idea what IC50 was measured for COC[C@H](C)Nc1ncc2c(-c3cnn(C4COC4)c3)cc([C@H]3CCc4[nH]ncc4C3)n2n1 ? ≤ 100 nM

Any idea what IC50 was measured for COCC(C)Nc1ncc2c(-c3cnn(C4COC4)c3)cc(C3CCNC(=O)C3)n2n1 (mixture of isomers) ? 1000 to 10000 nM

Any idea what IC50 was measured for COC[C@H](C)Nc1ncc2c(-c3cn(C)cn3)cc([C@H]3CC[C@H](O)CC3)n2n1 ? 100 to 1000 nM

Any idea what IC50 was measured for COC[C@H](C)Nc1ncc2c(-c3cnn(C4COC4)c3)cc(C3CCC(=O)CC3)n2n1 ? 100 to 1000 nM

Any idea what IC50 was measured for COCC(C)Nc1ncc2c(C3CC4CCC(C3)N4C)cc(C3CCC(O)CC3)n2n1 (stereo not drawn) ? 1000 to 10000 nM

Any idea what IC50 was measured for Cc1nnc(Cn2cc(-c3cc([C@H]4CC[C@H](O)CC4)n4nc(N[C@@H](C)COC(F)F)ncc34)cn2)o1 ? ≤ 100 nM

Any idea what IC50 was measured for COC[C@H](C)Nc1ncc2c(-c3cnn(C(C)(C)C(=O)N4CCCC5(COC5)C4)c3)cc([C@H]3CC[C@H](O)CC3)n2n1 ? 1000 to 10000 nM

Any idea what IC50 was measured for COCC(C)Nc1ncc2c(-c3ccc(C(C)N4CCCC4)cc3)cc(C3CCC(O)CC3)n2n1 (stereo not drawn) ? ≤ 100 nM

Any idea what IC50 was measured for COC[C@H](C)Nc1ncc2c(-c3cnn(C4CC(S(C)(=O)=O)C4)c3)cc([C@H]3CC[C@H](O)CC3)n2n1 (stereo partly drawn) ? ≤ 100 nM

Any idea what IC50 was measured for CCCCC[C@H](C)Nc1ncc2c(NC3CCN(C)CC3)cc([C@H]3CC[C@H](O)CC3)n2n1 ? 100 to 1000 nM
